tested on: SF-268; test: NCI tumour cell line growth inhibition, 48 h
Calls of active or inactive are those of the source. Cut-off read from the data, not from the text of the source: active = GI50 up to about 1.1 µM and inactive = higher.
Outcome field: choose from T for active, F for inactive

CCOC(=O)c1c2c(n(-c3ccc(C)cc3)c1C)-c1ccccc1C(=O)C2(C(=O)OCC)C(=O)OCC ... F
N#CC1CCN2N=C(c3ccccc3)SC12c1ccccc1 (stereo unspecified) ... F
NC(=S)N1N=C2c3ccccc3CC[C@H]2[C@@H]1c1ccc(Cl)cc1 ... F
CCOC(=O)C(C(=O)COC(C)(C)C)[C@@H]1C=C[C@H](OC(C)=O)C1 (stereo partly specified) ... F
N[C@H]1CCN(c2c(F)cc3c(=O)c(C(=O)O)cn4c3c2Oc2c-4ccc3c2ccc2ccccc23)C1 ... T
Cc1sc2nc3n(c(=O)c2c1C)N=C(c1ccc(Cl)cc1)CS3 ... F

We next turn to a different compound, shown below.
Please indicate how the test categorized O=C(O)c1cc(-c2ccc(-c3ccccc3)cc2)nc2cc3ccccc3cc12 .
F

###

Entries annotated with measured GI50
test system: MOLT-4; test: NCI tumour cell line growth inhibition, 48 h
The source made the active and inactive calls. No stated cut-off is given here; in the data, active = GI50 up to about 1.1 µM and inactive = higher.

Use the examples below as a reference point.
COc1cc2c(oc(=O)c3c4occc4cc(OC)c23)c2cccc(OCc3ccccc3)c12 ... > 100 µM (inactive)
C=CCOc1ccc2c(C)cc(=O)oc2c1C ... 35.1 µM (inactive)

Readout GI50 for COC(=O)/C(=N/NC(=O)C[N+](C)(C)C)C(C(=O)OC)C(=O)C(=O)Nc1ccc(F)cc1 (stereo not drawn) , test system MOLT-4, was > 100 µM (inactive)

###

tested on: UACC-257; assay: NCI tumour cell line growth inhibition, 48 h
Activity calls are given as the source filed them. No stated cut-off is given here; in the data, active = GI50 up to about 1.1 µM and inactive = higher.
Select the correct class. Options are 1 (yes) for active, 0 (no) for inactive and nothing else.

O=C1c2ccccc2-c2cc([N+](=O)[O-])c([N+](=O)[O-])cc21 ... 0 (no)
COc1ccc(-c2c(CN3CCOCC3)sc3nc4ccccc4n23)cc1 ... 0 (no)
CC(=O)NC(ON1C(=O)COc2ccccc21)C(Cl)(Cl)Cl (configuration not stated) ... 0 (no)
C=C1C(=O)OC2C1CC1OC2C(C)CCC/C(C)=C\CCC1(C)O (configuration not stated) ... 0 (no)
CC(NC(C#N)CC12CC3CC(CC(C3)C1)C2)c1ccccc1 (configuration not stated) ... 0 (no)

Answer briefly: the call reported for Cc1cc2c(c(C(=O)O)c1C)-c1cccc(Cl)c1C2=O in this assay.
0 (no)

How was N#C/C(=C\c1c[nH]c2ccccc12)C(=O)c1ccc(O)c(O)c1 classified in this test?
0 (no)

Any idea what this test logged for C[N+](C)(C)CCOP(=O)(O)OP(=O)([O-])OCC1CCC(n2ccc(N)nc2=O)O1 (configuration not stated) ?
0 (no)

Per the assay record, what outcome was assigned to Oc1cc(CF)nc(S)n1 ?
0 (no)

What did this assay record as the result for O=C(O)c1cc(-c2ccc(-c3ccccc3)cc2)nc2cc3ccccc3cc12 ?
0 (no)

Could you kindly confirm the outcome this assay logged for CC1C(c2ccc3c(c2)OCO3)c2cc3c(cc2OC1N1CCCCC1)OCO3 (configuration not stated) ?
0 (no)

Each compound tested received a call. Report the one for CCCCCCCCCCCC[N+](CCCCCCCCCCCC)=C1SCCS1 .
0 (no)

###

test system: IGROV-1; test: NCI tumour cell line growth inhibition, 48 h
Activity calls are given as the source filed them. No stated cut-off is given here; in the data, active = GI50 up to about 1.1 µM and inactive = higher.
Select the matching outcome among TRUE for active, FALSE for inactive

CC1C(c2ccc3c(c2)OCO3)c2cc3c(cc2OC1N1CCCCC1)OCO3 (configuration not stated) ... FALSE

Record request — test call for Cc1cc(C2(c3cc(C)c(O)c(C(=O)O)c3)OS(=O)(=O)c3ccccc32)cc(C(=O)O)c1O
FALSE

Recorded test call requested for C=CCn1c(=O)c(C)cn(COCCO)c1=O
FALSE

Answer briefly: the call reported for CCCCCC(O)C(O)CCC[C@H](O)[C@H]1CC[C@H]([C@H]2CC[C@H]([C@H](O)CCCCCCCCCCCCC3=C[C@H](C)OC3=O)O2)O1 (some centres not stated) in this assay.
FALSE

Record lookup: outcome of this test for COCCOC1=CC(=O)c2c(O)ccc(O)c2C1=O ?
FALSE

So what was the verdict on Cc1ccc([N+](=O)[O-])c2c(NCC(O)CO)ccnc12 (configuration not stated) in this test?
FALSE

State the result this test recorded for O=c1[nH]nc(-c2ccccc2)c2[nH]c3c(c12)Cc1ccccc1-3 .
TRUE

Assay result, entry COc1cc(C2c3cc4c(cc3[C@@H](Nc3cnc5ccccc5c3)C3COC(=O)[C@H]23)OCO4)cc(OC)c1O (some centres not stated) — outcome?
FALSE

Query: recorded result category for CCN1C(=S)n2cccc2C1CC(=O)c1ccc(Cl)cc1 (configuration not stated) in this test
FALSE

###

tested on: HCC 2998; assay: NCI tumour cell line growth inhibition, 48 h
Active and inactive are the calls of the source. No stated cut-off is given here; in the data, active = GI50 up to about 1.1 µM and inactive = higher.
quantity_measured: GI50

// sample CN(C)c1ccc(N2C(=S)SC(=N\c3ccccc3)/C2=N/c2ccccc2)cc1 , its GI50 was > 100 µM (inactive)

Measured GI50 of COc1ccc(/C=C/C(=O)CC(=O)/C=C/c2ccc(OC)cc2)cc1 : > 100 µM (inactive)

For record CC(C)N1C(C)[C@@H](c2ccccc2)O[P@]1(=O)CC1=CCCCC1 (some centres not stated) the listed GI50 is 99.3 µM (inactive)

The recorded GI50 for entry O=C1NN=C(c2ccc(Cl)cc2)CC1C1C(=O)N(c2ccccc2)N=C1c1ccccc1 (configuration not stated) equals 26.8 µM (inactive)

CC(=O)O[C@H]1CC[C@@]2(C)C(=CC[C@@H]3[C@@H]2CC[C@]2(C)C(=N/O)/C(=C\c4ccccc4)C[C@@H]32)C1 has a reported GI50 of 11.9 µM (inactive)

###

tested on: HOP-92; assay: NCI tumour cell line growth inhibition, 48 h
Active and inactive are the calls of the source. Cut-off read from the data, not from the text of the source: active = GI50 up to about 1.1 µM and inactive = higher.
// one of active, inactive, no free text

# count of solved cases: 3
O=CN/C=C/c1cccc(O)c1 ... inactive
N=C(N)n1nc2c(c1O)CCC2 ... inactive
COc1cccc(C(=O)N[C@@H]2[C@H](O)[C@@H](CO)O[C@H]2n2cnc3c(N)ncnc32)c1 ... inactive

GET /call?item= CCC1(c2ccccc2)C(=O)N=C(c2ccccc2)N1CCc1ccccc1 (stereo not given) returns the recorded outcome of this test.
inactive

State the result this test recorded for O=C(O)C1(Cc2ccc3c(c2)CCC3)Cc2ccccc2C1=O (stereo not given) .
inactive

Just curious, what result did CCCCCCCCCCCCOC1C(COCCN2CCCC2)OC2OC(C)(C)OC21 (stereo not given) get here?
inactive

###

Measured GI50 by item
tested on: OVCAR-8; assay: NCI tumour cell line growth inhibition, 48 h
Calls of active or inactive are those of the source. Cut-off read from the data, not from the text of the source: active = GI50 up to about 1.1 µM and inactive = higher.

Answered cases to consult:
C=CCN(N=O)C(=O)N(CCC)CCCC(NC(C)=O)C(=O)NCc1ccccc1 (stereo not given) ... > 100 µM (inactive)
N#C/C(=C\c1cc2ccccc2c2ccccc12)c1ccccc1 ... 30 µM (inactive)
N#CC1CCN2N=C(c3ccccc3)SC12c1ccccc1 (stereo not given) ... 76.6 µM (inactive)

Reported GI50 for O=C1CN2CCN(CC2)CC(=O)Nc2ccc(cc2)S(=O)(=O)c2ccc(cc2)NC(=O)CN2CCN(CC2)CC(=O)Nc2ccc(cc2)S(=O)(=O)c2ccc(cc2)N1 was 38.8 µM (inactive)

Value of measured GI50 for the entry O=[N+]([O-])C(Cl)C(Cl)C(Cl)=C(Cl)Cl (stereo not given) : 30.9 µM (inactive)

Sure, the documented GI50 for CCN1C(=S)n2cccc2C1CC(=O)c1ccc(Cl)cc1 (stereo not given) is > 100 µM (inactive)

Record CC(NC(=O)C(Cc1ccc(OC(=O)c2ccccc2)cc1)NC(=O)OC(C)(C)C)C(=O)NCC(=O)NC(Cc1ccccc1)C(=O)NN (stereo not given) . Reported GI50: 65 µM (inactive)

Record CC(NC(C#N)CC12CC3CC(CC(C3)C1)C2)c1ccccc1 (stereo not given) , field GI50: 60.8 µM (inactive)

The compound Cc1ccc2c(=O)c3c(O)c4c(cc3n(C)c2c1)OC(C)(C)C=C4 showed GI50 equal to > 10 µM (inactive)

// recorded GI50 for C/C(=C\[C@H]1C[C@@H]([C@@H]2CC[C@]34C[C@]23C=C[C@@H]2[C@@]3(C)CC=C5C[C@@H](c6ccccc6)OC[C@]5(C)[C@@H]3C[C@@H](O)[C@]24C)C(=O)O1)CO : 4.91 µM (inactive)

###

test system: UACC-257; assay: NCI tumour cell line growth inhibition, 48 h
The source made the active and inactive calls. No stated cut-off is given here; in the data, active = GI50 up to about 1.1 µM and inactive = higher.
Measured GI50 of individual entries

Check out these entries, answers already filled in.
COC1=C(Br)C(=O)c2nc(C)ccc2C1=O ... 13.6 µM (inactive)
COc1cc(C2c3cc4c(cc3[C@@H](NCCN3CCOCC3)C3COC(=O)[C@H]23)OCO4)cc(OC)c1O (stereo partly specified) ... 3.23 µM (inactive)
OCCN(CO)CO ... > 100 µM (inactive)
Cc1ccc(S(=O)(=O)SCc2ccccc2)cc1 ... 31.9 µM (inactive)
CC1=CC(=O)CC(C)(C)C1(O)/C=C/C(C)=C/C(=O)O (stereo unspecified) ... > 100 µM (inactive)

Continue with the next molecule.
Field GI50 (entry CC1=NN(C(=O)CC(=O)Nc2ccccc2C)C(=O)C1/N=N/c1ccc(C(=O)O)cc1 (stereo unspecified) ) reads > 100 µM (inactive)
